Target: SHP2-C SH2;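 note: peptide library displayed on the E. coli surface as eCPX fusions, selected cells deep-sequenced, score is each peptide's frequency after selection divided by its frequency in the input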
Assay: SH2 binding enrichment of the phosphorylated peptide, bacterial display (enrichment ratio); higher = better substrate or ligand; peptides without Tyr show the background
Quantity: SH2 binding enrichment

(P) AIFEGYALPHA [ACTC1_Y171_P166A_YF]
(Q) SLLTDCSPQLQ [OTC_Y345_Y345C]
(R) KKMKRYHVGKV [HARS2_Y151]
Prompt: Quick one: which order do the items above go in by SH2 binding enrichment, smallest to largest? // respond by listing labels in the order requested
Response: P, Q, R
(P: 0.518, Q: 0.765, R: 1.36)

---

Tested on: c-Abl (mouse);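 note: 11-residue human phosphosite peptides and single-mutation variants displayed on the E. coli surface, counted by deep sequencing, each peptide's frequency after selection divided by its frequency in the unselected input library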;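 note: frequency after pTyr selection over input frequency; kinase dosed for 20-30% of maximal phosphorylation in three min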
Experiment: phosphorylation enrichment, bacterial display (enrichment ratio); higher = better substrate or ligand; peptides without Tyr show the background
Some sequences, each annotated with its measured phosphorylation enrichment.
# output: bare number, no unit

{"Sequence Code": "IFCIQYNICAF [MYH4_Y820_R823C]", "Test System": "c-Abl (mouse)", "phosphorylation enrichment": 1.14}
{"Sequence Code": "SVCPDYDLCSV [SQSTM1_Y148]", "Test System": "c-Abl (mouse)", "phosphorylation enrichment": 0.98}
{"Sequence Code": "IAKNPYDPPGR", "Test System": "c-Abl (mouse)", "phosphorylation enrichment": 0.455}
{"Sequence Code": "VDEVLYEDSST [MTHFS_Y197]", "Test System": "c-Abl (mouse)", "phosphorylation enrichment": 0.785}
{"Sequence Code": "SGLDSYVRSLP [TRAPPC1_Y133_R129G]", "Test System": "c-Abl (mouse)", "phosphorylation enrichment": 0.426}

Prompt: Let me know recorded phosphorylation enrichment for LRYDVYGGENE [STOX1_Y610_E608D] , thanks.
Response: 2.15

Prompt: Let me know recorded phosphorylation enrichment for HGEAFYSEVKP [PAK5_Y182_YF] , thanks.
Response: 1.02

Prompt: Let me know recorded phosphorylation enrichment for DASENYFVMDS [TMEM240_Y77_T80M] , thanks.
Response: 0.677

Prompt: Let me know recorded phosphorylation enrichment for CTHDLYMFMRE [FGFR3_Y724_I726F] , thanks.
Response: 0.992

Prompt: Let me know recorded phosphorylation enrichment for FQQLFYLLQTN [IQGAP2_Y890_YF] , thanks.
Response: 0.897

Prompt: Let me know recorded phosphorylation enrichment for ISKKHYAGLLF [POLD1_Y809_R808H] , thanks.
Response: 0.521

Prompt: Let me know recorded phosphorylation enrichment for SSYPDYLAAVD [GLB1_Y154_D151Y] , thanks.
Response: 0.653

Prompt: Let me know recorded phosphorylation enrichment for VFAADYFKLLG [ROR2_Y645_YF] , thanks.
Response: 0.498

Prompt: Let me know recorded phosphorylation enrichment for WIPIQYLIISE [NOG_Y222_P223L] , thanks.
Response: 0.858

Prompt: Let me know recorded phosphorylation enrichment for LLILEYAKFGS [RET_Y806_V804L_YF] , thanks.
Response: 0.635

Prompt: Let me know recorded phosphorylation enrichment for WGLRSYYETSK [MAGED2_Y448] , thanks.
Response: 0.661

Prompt: Let me know recorded phosphorylation enrichment for DNACQYMLTDR [MYH7_Y164_Y162C] , thanks.
Response: 0.766
